target-of-assay: AOC1 (Homo sapiens, UniProt P19801)
Construct: purchased R&D Systems 8297-AO-010
protocol: AOC1 biochemical assay (Amplex Red)
experimental-conditions: Table 1; read-out: AOC1 IC50
Measured IC50 of individual entries

compound: N=C(N)NC(=O)OCc1cccc(-c2cnc(OCC3CCOCC3)nc2)n1
IC50, µM: 0.899

compound: COCCOc1ncc(-c2cccc(COC(=O)NC(=N)N)n2)cn1
IC50, µM: 3.48

compound: N=C(N)NC(=O)OCc1cccc(-c2cnc(OCc3csnn3)nc2)n1
IC50, µM: 1.02

compound: N=C(N)NC(=O)OCc1cccc(-c2cnc(OCC3CCN(C(=O)C4CC4)CC3)nc2)n1
IC50, µM: 0.322

compound: N=C(N)NC(=O)OCc1cccc(-c2cnc(OCc3ccon3)nc2)n1
IC50, µM: 1.59

compound: CSc1ncc(-c2cccc(COC(=O)NC(=N)N)n2)cn1
IC50, µM: 10.2

compound: CN(c1ncc(-c2cccc(COC(=O)NC(=N)N)n2)cn1)C1CCOC1 (stereo not drawn)
IC50, µM: 0.483

compound: Cc1ncc(-c2cccc(COC(=O)NC(=N)N)n2)cn1
IC50, µM: 7.6

compound: N=C(N)NC(=O)OCc1cccc(-c2cnc(N3CCOCC3)nc2)n1
IC50, µM: 1.34

###

target-of-assay: AOC1 (Homo sapiens, UniProt P19801)
Construct: purchased R&D Systems 8297-AO-010
Sequence (P19801 20-751): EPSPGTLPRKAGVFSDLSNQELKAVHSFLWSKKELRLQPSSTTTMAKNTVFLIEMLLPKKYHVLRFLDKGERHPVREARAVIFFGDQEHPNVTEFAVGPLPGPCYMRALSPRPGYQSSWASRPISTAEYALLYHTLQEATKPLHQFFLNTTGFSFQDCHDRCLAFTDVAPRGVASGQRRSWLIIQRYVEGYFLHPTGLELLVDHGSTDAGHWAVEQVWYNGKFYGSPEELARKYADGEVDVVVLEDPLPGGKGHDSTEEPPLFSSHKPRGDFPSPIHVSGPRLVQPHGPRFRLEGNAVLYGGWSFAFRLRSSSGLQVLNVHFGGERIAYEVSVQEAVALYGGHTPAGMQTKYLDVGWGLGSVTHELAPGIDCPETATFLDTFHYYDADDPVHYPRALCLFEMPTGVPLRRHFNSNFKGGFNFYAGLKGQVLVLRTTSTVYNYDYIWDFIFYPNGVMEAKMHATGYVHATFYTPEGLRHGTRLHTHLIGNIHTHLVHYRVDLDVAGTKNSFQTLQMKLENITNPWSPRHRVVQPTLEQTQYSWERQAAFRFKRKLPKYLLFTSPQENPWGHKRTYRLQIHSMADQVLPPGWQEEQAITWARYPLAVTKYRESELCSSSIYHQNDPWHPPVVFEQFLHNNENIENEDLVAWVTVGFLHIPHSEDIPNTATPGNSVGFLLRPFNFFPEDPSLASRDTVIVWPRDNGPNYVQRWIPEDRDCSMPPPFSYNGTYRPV
protocol: AOC1 biochemical assay (Amplex Red)
experimental-conditions: Table 1; read-out: AOC1 IC50
Text: The Amplex® Red Assay (available from Thermo Fisher Scientific) provides a sensitive method for the detection of H2O2 generated during enzymatic reactions like the amine oxidation catalyzed by AOC1.
Measured log10(IC50) of individual entries
reported-metric: log10(IC50) (log10 of the value in nM)

molecular-string: CCOc1ncc(-c2cccc(COC(=O)NC(=N)N)n2)cn1
log10(IC50): 3.38
--
molecular-string: CN(c1ncc(-c2cccc(COC(=O)NC(=N)N)n2)cn1)C1CCOCC1
log10(IC50): 2.85
--
molecular-string: N=C(N)NC(=O)OCc1cccc(-c2ccc(OCc3ccon3)nc2)n1
log10(IC50): 3.58
--
molecular-string: COC1CN(c2ncc(-c3cccc(COC(=O)NC(=N)N)n3)cn2)C1
log10(IC50): 3.17
--
molecular-string: COCCNc1ncc(-c2cccc(COC(=O)NC(=N)N)n2)cn1
log10(IC50): 3.15
--
molecular-string: N=C(N)NC(=O)OCc1cccc(-c2cnc(O[C@H]3CCOC3)nc2)n1
log10(IC50): 3.72
--
molecular-string: N=C(N)NC(=O)OCc1cccc(-c2cnc(OCc3cnns3)nc2)n1
log10(IC50): 2.70
--
molecular-string: CC(=O)N1CCC(COc2ncc(-c3cccc(COC(=O)NC(=N)N)n3)cn2)CC1
log10(IC50): 2.36
--
molecular-string: C#CCCOc1ncc(-c2cccc(COC(=O)NC(=N)N)n2)cn1
log10(IC50): 3.43
--
molecular-string: N#CC1(COc2ncc(-c3cccc(COC(=O)NC(=N)N)n3)cn2)CCC1
log10(IC50): 3.58
--
molecular-string: COc1ncc(-c2cccc(COC(=O)NC(=N)N)n2)cn1
log10(IC50): 3.91
--
molecular-string: N=C(N)NC(=O)OCc1cccc(-c2cnc(C3CC3)nc2)n1
log10(IC50): 3.90
--
molecular-string: CN(C)c1ncc(-c2cccc(COC(=O)NC(=N)N)n2)cn1
log10(IC50): 3.24

###

target-of-assay: AOC3 (Homo sapiens, UniProt Q16853)
Construct: expressed in transfected cells; host or cells: CHO cells
Sequence (Q16853 whole entry): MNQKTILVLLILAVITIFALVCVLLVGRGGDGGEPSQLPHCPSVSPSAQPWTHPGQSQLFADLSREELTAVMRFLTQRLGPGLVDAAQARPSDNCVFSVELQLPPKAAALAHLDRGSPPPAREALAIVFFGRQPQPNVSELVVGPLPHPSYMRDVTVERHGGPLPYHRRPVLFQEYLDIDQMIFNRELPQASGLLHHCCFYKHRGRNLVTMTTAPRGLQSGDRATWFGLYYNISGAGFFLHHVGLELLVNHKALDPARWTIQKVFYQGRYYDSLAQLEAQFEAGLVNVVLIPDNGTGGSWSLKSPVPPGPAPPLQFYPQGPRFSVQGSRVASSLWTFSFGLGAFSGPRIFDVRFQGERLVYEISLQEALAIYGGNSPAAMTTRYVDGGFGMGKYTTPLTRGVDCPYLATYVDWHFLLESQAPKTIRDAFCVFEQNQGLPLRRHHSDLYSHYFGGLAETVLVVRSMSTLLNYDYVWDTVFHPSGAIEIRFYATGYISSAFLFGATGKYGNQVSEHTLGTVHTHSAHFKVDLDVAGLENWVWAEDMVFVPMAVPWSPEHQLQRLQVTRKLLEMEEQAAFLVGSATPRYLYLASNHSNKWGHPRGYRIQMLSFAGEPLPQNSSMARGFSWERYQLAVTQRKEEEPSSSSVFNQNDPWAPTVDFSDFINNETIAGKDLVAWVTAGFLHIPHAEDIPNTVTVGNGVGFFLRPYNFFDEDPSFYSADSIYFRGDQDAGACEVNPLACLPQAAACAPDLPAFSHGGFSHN
protocol: AOC3 biochemical assay (MAO-Glo)
experimental-conditions: Table 1; read-out: AOC3 IC50
Criterion: IC50 strictly less than 5 nM. Met: Yes. Not met: No.

compound: N=C(N)NC(=O)OCc1cccc(-c2cnc(OCc3nccs3)nc2)n1 [Example 31]
category-label: Yes
--
compound: N=C(N)NC(=O)OCc1cccc(-c2cnc(N3CCOCC3)nc2)n1 [Example 14]
category-label: Yes
--
compound: N=C(N)NC(=O)OCc1cccc(-c2cnc(OCc3ccon3)nc2)n1 [Example 24]
category-label: Yes
--
compound: CSc1ncc(-c2cccc(COC(=O)NC(=N)N)n2)cn1 [Example 06]
category-label: No
--
compound: N=C(N)NC(=O)OCc1cccc(-c2cnc(OCc3csnn3)nc2)n1 [Example 35]
category-label: Yes
--
compound: COCCN(C)c1ncc(-c2cccc(COC(=O)NC(=N)N)n2)cn1 [Example 16]
category-label: No
--
compound: C#CCCOc1ncc(-c2cccc(COC(=O)NC(=N)N)n2)cn1 [Example 08]
category-label: Yes
--
compound: Cc1ncc(-c2cccc(COC(=O)NC(=N)N)n2)cn1 [Example 01]
category-label: No
--
compound: CN(c1ncc(-c2cccc(COC(=O)NC(=N)N)n2)cn1)C1CCOC1 (stereo not shown) [Example 25]
category-label: Yes
--
compound: COCCOc1ncc(-c2cccc(COC(=O)NC(=N)N)n2)cn1 [Example 10]
category-label: No
--
compound: N=C(N)NC(=O)OCc1cccc(-c2cnc(OC[C@H]3CC3(F)F)nc2)n1 [Example 26]
category-label: Yes
--
compound: N=C(N)NC(=O)OCc1cccc(-c2cnc(OCc3cnns3)nc2)n1 [Example 34]
category-label: Yes
--
compound: CC(=O)N1CCC(COc2ncc(-c3cccc(COC(=O)NC(=N)N)n3)cn2)CC1 [Example 37]
category-label: Yes
--
compound: COCCNc1ncc(-c2cccc(COC(=O)NC(=N)N)n2)cn1 [Example 09]
category-label: No
